# testSystem: Fatty-acid amide hydrolase 1 (Homo sapiens)
# Sequence (O00519 whole entry): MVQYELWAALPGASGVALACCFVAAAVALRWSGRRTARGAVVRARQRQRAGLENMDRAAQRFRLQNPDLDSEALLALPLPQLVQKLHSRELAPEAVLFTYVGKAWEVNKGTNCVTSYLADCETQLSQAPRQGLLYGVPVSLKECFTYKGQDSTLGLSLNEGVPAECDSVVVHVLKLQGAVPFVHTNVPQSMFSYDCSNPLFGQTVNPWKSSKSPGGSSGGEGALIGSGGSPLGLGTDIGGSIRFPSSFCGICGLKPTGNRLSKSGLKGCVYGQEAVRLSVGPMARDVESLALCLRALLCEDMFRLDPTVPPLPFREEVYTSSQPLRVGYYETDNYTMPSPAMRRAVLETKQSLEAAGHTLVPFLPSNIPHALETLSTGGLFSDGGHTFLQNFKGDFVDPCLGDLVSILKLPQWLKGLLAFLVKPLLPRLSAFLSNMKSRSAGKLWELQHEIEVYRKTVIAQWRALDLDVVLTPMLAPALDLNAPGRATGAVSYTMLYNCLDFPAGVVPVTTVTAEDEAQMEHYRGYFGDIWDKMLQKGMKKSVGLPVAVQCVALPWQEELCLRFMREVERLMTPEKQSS
# procedureSummary: Inhibition of human recombinant FAAH assessed as [3H]-AEA hydrolysis preincubated for 30 mins […] measured after 10 mins by liquid scintillation counting
recordedEndpoint: pIC50
Interpret pIC50 as the negative base-10 log of the concentration measured in mol/L.

- querySmiles: "O=C(Nc1ccccc1)c1cc(N2CCN(C(=O)n3nnc4ccccc43)CC2)ccc1[N+](=O)[O-]"
  recordedEndpoint: "pIC50"
  recordedNumber: 6.44
- querySmiles: "CN(C)C(=O)c1cc(N2CCN(C(=O)n3nnc4ccccc43)CC2)ccc1[N+](=O)[O-]"
  recordedEndpoint: "pIC50"
  recordedNumber: 5.30
- querySmiles: "O=C(N1CCC(Cc2ccccc2)CC1)n1nnc2ccccc21"
  recordedEndpoint: "pIC50"
  recordedNumber: 8.70
- querySmiles: "O=C(c1cccc(CN2CCN(C(=O)n3nnc4ccccc43)CC2)c1)N1CCCCC1"
  recordedEndpoint: "pIC50"
  recordedNumber: 7.24
- querySmiles: "O=C(N1CCN(c2ccccc2[N+](=O)[O-])CC1)n1nnc2ccccc21"
  recordedEndpoint: "pIC50"
  recordedNumber: 7.72
- querySmiles: "O=C(N1CCN(Cc2ccc([N+](=O)[O-])cc2)CC1)n1nnc2ccccc21"
  recordedEndpoint: "pIC50"
  recordedNumber: 7.05
- querySmiles: "O=C(N1CCN(Cc2ccc3ccccc3c2)CC1)n1nnc2ccccc21"
  recordedEndpoint: "pIC50"
  recordedNumber: 7.92
- querySmiles: "O=C(N1CCN(Cc2ccc(-c3ccccc3)cc2)CC1)n1nnc2ccccc21"
  recordedEndpoint: "pIC50"
  recordedNumber: 7.74
- querySmiles: "O=C(N1CCN(c2ccccc2)CC1)n1nnc2ccccc21"
  recordedEndpoint: "pIC50"
  recordedNumber: 7.96

Now consider the entry below.
Look up pIC50 for this molecule: O=C(N1CCN(Cc2ccccc2-c2ccccc2)CC1)n1nnc2ccccc21
7.49

---

# testSystem: Fatty-acid amide hydrolase 1 (Homo sapiens)
# procedureSummary: Inhibition of FAAH
recordedEndpoint: IC50 (µM)
Give a bare numeral; the unit µM is implied.

Look up IC50 for this compound: O=C(Oc1ccc([N+](=O)[O-])cc1)N1CCC(C(O)(c2ccc3c(c2)OCO3)c2ccc3c(c2)OCO3)CC1
4.69

---

List of Ratio IC50 values.
# Species on record: Homo sapiens
# procedureSummary: Selectivity ratio of IC50 for human recombinant FAAH to IC50 for human MAGL
Answer with the value's number alone.

Consider the reported Ratio IC50 for these compounds:
- querySmiles: "O=C(N1CCN(Cc2ccc(Br)cc2)CC1)n1nnc2ccccc21"
  Ratio IC50: 2.5
- querySmiles: "O=C(N1CCN(Cc2cccc([N+](=O)[O-])c2)CC1)n1nnc2ccccc21"
  Ratio IC50: 5.4
- querySmiles: "CC(C)NC(=O)c1ccc(N2CCN(C(=O)n3nnc4ccccc43)CC2)c([N+](=O)[O-])c1"
  Ratio IC50: 0.43
- querySmiles: "O=C(O)c1cccc(CN2CCN(C(=O)n3nnc4ccccc43)CC2)c1"
  Ratio IC50: 41
- querySmiles: "O=C(Nc1ccccc1)c1cc(N2CCN(C(=O)n3nnc4ccccc43)CC2)ccc1[N+](=O)[O-]"
  Ratio IC50: 19
- querySmiles: "O=C(N1CCN(Cc2cccc3ccccc23)CC1)n1nnc2ccccc21"
  Ratio IC50: 4
- querySmiles: "O=C(N1CCN(C(c2ccccc2)c2ccccc2)CC1)n1nnc2ccccc21"
  Ratio IC50: 1040
- querySmiles: "CN(C)C(=O)c1cccc(CN2CCN(C(=O)n3nnc4ccccc43)CC2)c1"
  Ratio IC50: 2.7

Look up Ratio IC50 for this compound: O=C(N1CCN(Cc2ccc3ccccc3c2)CC1)n1nnc2ccccc21
1.3

Look up Ratio IC50 for this compound: O=C(N1CCN(c2ccccc2)CC1)n1nnc2ccccc21
0.5

Look up Ratio IC50 for this compound: O=C(N1CCN(Cc2ccc(F)cc2)CC1)n1nnc2ccccc21
1.5

Look up Ratio IC50 for this compound: O=C(N1CCN(Cc2ccccc2-c2ccccc2)CC1)n1nnc2ccccc21
1
